target: T1, Taq DNA polymerase (Thermus aquaticus, UniProt P19821 1-832); experiment: AMC sensor, antibody immobilised
T1 construct: also called Taq enzyme; Taq DNA enzyme
T1 sequence (P19821 whole entry): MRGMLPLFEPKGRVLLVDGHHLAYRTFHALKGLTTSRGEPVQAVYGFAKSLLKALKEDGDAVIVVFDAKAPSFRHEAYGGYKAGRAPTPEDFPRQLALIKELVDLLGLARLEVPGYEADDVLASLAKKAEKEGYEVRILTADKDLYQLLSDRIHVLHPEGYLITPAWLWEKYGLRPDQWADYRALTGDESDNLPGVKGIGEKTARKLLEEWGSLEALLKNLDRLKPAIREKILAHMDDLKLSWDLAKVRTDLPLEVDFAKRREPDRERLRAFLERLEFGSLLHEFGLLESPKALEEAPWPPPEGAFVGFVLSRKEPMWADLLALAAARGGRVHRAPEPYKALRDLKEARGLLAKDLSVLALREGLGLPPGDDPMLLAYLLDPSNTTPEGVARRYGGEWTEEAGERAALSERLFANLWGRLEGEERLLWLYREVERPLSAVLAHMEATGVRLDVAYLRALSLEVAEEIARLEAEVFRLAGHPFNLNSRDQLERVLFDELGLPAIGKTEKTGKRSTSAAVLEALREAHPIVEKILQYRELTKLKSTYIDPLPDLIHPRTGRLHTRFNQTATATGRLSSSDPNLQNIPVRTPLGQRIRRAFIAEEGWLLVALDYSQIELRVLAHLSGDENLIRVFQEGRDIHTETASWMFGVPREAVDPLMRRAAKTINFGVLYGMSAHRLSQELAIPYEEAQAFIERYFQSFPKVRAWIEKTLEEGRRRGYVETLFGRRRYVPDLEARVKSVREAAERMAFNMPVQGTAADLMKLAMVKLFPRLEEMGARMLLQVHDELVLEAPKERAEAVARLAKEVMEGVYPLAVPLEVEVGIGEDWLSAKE
measured-attribute: kon (M⁻¹ s⁻¹)
Number only, in M⁻¹ s⁻¹; omit the unit.

1) Mutation 1-33 (antibody, V domains shown, Mutation 1 background; CDRs built) VH: QVQLQQPGAELVKPGASVRLSCQTSVETFSTYYIYWVKQRPGEGLEWIGGINPTSGGPVFNEKFKSKATLTVDTSSSTAYMQLSSLTSVDSAVYYCTRSLLRRGYYFDYWGQGTALTVSS VL: DIQMTQTTSSLSASLGDRVTISCRASQDINNYLNWYQQKPDGTIKLLIYYTSRLQSGLPSRFSGSGSGTDYSLTIANLEQEDIATYFCQQDDTLPLTFGAGTKVELKR    42600
2) Mutation 1-39 (antibody, V domains shown, Mutation 1 background; CDRs built) VH: QVQLQQPGAELVKPGASVRLSCQTSVNTFTTYYIYWVKQRPGEGLEWIGGINPTSGGPVFNEKFKSKATLTVDTSSSTAYMQLSSLTSVDSAVYYCTRSVLRRGYYFDYWGQGTALTVSS VL: DIQMTQTTSSLSASLGDRVTISCRASQDINNYLNWYQQKPDGTIKLLIYYTSRLQSGVPSRFSGSGSGTDYSLTIANLEQEDIATYFCQQDDTVPLTFGAGTKVELKR    48100

// kon lookup, key: Mutation 1-55 (antibody, V domains shown, Mutation 1 background; CDRs built) VH: QVQLQQPGAELVKPGASVRLSCQTSVDTFSTYYIYWVKQRPGEGLEWIGGVNPTSGGPVFNEKFKSKATLTVDTSSSTAYMQLSSLTSVDSAVYYCTRSIVRRGYYFDYWGQGTALTVSS VL: DIQMTQTTSSLSASLGDRVTISCRASQDINNYVNWYQQKPDGTIKLLIYYTSRLNSGIPSRFSGSGSGTDYSLTIANLEQEDIATYFCQQDDTIPITFGAGTKVELKR 64400
